Items are presented alongside their recorded IC50.
# target of assay: human IRAK4 (Homo sapiens, UniProt Q9NWZ3)
# Sequence (Q9NWZ3 1-460): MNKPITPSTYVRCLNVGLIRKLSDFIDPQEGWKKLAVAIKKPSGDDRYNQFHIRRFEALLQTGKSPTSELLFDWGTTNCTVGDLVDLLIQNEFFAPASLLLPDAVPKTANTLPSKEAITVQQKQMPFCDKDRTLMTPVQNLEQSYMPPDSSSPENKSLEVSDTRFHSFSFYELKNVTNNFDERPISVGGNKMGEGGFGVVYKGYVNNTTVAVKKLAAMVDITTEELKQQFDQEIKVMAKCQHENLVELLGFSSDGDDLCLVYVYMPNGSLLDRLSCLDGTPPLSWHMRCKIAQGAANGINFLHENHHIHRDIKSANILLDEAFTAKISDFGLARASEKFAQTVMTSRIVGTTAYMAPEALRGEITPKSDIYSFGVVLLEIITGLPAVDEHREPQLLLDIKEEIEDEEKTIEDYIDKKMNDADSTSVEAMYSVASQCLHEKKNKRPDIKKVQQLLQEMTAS
observation type: IC50 (nM)

CC(C)(O)CCc1cn2cc(NC(=O)c3cccc(C(F)(F)F)n3)c(N3CCC(O)CC3)cc2n1 : 1.3
CCOc1cc2nc(CCC(C)(C)O)cn2cc1NC(=O)c1cccc(C(F)(F)F)n1 : 1.7
CC(C)(O)CCc1cn2cc(NC(=O)c3cccc(C(F)(F)F)n3)c(N3CCC(CO)CC3)cc2n1 : 0.9
CC(C)(O)CCc1cn2cc(NC(=O)c3cccc(C(F)(F)F)n3)c(N3CCC(C(N)=O)CC3)cc2n1 : 1.2
CC(C)(O)CCc1cn2cc(NC(=O)c3cccc(C(F)(F)F)n3)c(N3CCC(CN)CC3)cc2n1 : 1.3
CC(C)(O)CCc1cn2cc(NC(=O)c3cccc(C(F)(F)F)n3)c(N3CCCC(O)C3)cc2n1 (centres unmarked) : 3.8
CC(C)(O)CCc1cn2cc(NC(=O)c3cccc(C(F)(F)F)n3)c(N3CCC(C)(O)CC3)cc2n1 : 0.7
CC1(O)CCN(c2cc3nc(CCS(C)(=O)=O)cn3cc2NC(=O)c2cccc(C(F)(F)F)n2)CC1 : 0.5

###

// human IRAK4 (Homo sapiens, UniProt Q9NWZ3) IC50 records
observation type: IC50 (nM)

CC(C)(O)CCc1cn2cc(NC(=O)c3cccc(C(F)(F)F)n3)c(N3CCNCC3)cc2n1 : 1.5
NC(=O)C1CCN(c2cc3nc(CCC(=O)O)cn3cc2NC(=O)c2cccc(C(F)(F)F)n2)CC1 : 19.4
CC(C)(O)CCc1cn2cc(NC(=O)c3cccc(C(F)(F)F)n3)c(C(C)(C)O)cc2n1 : 0.4
